- Tested on: Saccharomyces cerevisiae
- assay info: protein stability index of tFT-peptide fusion (C-terminal peptide) (PSI (0-1 scale)); higher = more stable (slower turnover)
- measurement conditions: genetic background: wild type; temperature: 30 C
List of protein stability index values.
I'd appreciate a reply containing only the number, no unit.

The sequence GGWWGWAGENTR , when measured on Saccharomyces cerevisiae, yielded protein stability index of 0.7

----------
- System: Saccharomyces cerevisiae
- assay info: protein stability index of tFT-peptide fusion (C-terminal peptide) (PSI (0-1 scale)); higher = more stable (slower turnover)
- measurement conditions: genetic background: das1 deletion; temperature: 37 C
List of protein stability index values.
I'd appreciate a reply containing only the number, no unit.

# chain, observed measurement
rows = [
    ("RSWLCFIVFGLF", 0.485),
]

// sample GGVVGGVGVYDG , its protein stability index was 0.748

// sample RLGIRCLYLRFI , its protein stability index was 0.597

// sample LPPHSASLSSSF , its protein stability index was 0.725

// sample VCLFRLVVFFPV , its protein stability index was 0.426

// sample LPSPLLFLPALF , its protein stability index was 0.778

// sample GGGVWWGVLVLG , its protein stability index was 0.51

// sample VSDLYLSLVRVV , its protein stability index was 0.604

// sample YFVLVRLICFLL , its protein stability index was 0.472

// sample GLSLVCWIVVLG , its protein stability index was 0.347

// sample EQMRRYILVSYV , its protein stability index was 0.6

// sample CACAVPFLLLFF , its protein stability index was 0.505

// sample HSAIFLFFFFFG , its protein stability index was 0.444

// sample LGATYSVQLYVS , its protein stability index was 0.621

----------
- System: Saccharomyces cerevisiae
- assay info: protein stability index of tFT-peptide fusion (C-terminal peptide) (PSI (0-1 scale)); higher = more stable (slower turnover)
- measurement conditions: genetic background: wild type; temperature: 30 C
recorded metric: protein stability index
I'd appreciate a reply containing only the number, no unit.

Some solved cases for reference:
# chain, protein stability index
records = [
    ("VVAPETTPFSPR", 0.719),
    ("SLALVATWCGYR", 0.688),
    ("TPRPRRNCGPGP", 0.717),
]

The sequence DRLTLEKKGRGM , when measured on Saccharomyces cerevisiae, yielded protein stability index of 0.684

The sequence PRTGPLPPLTPL , when measured on Saccharomyces cerevisiae, yielded protein stability index of 0.679

The sequence PLRRPPRLPAPP , when measured on Saccharomyces cerevisiae, yielded protein stability index of 0.7

The sequence FCVFSDVSRFSY , when measured on Saccharomyces cerevisiae, yielded protein stability index of 0.701

The sequence GGGKRGDMSVVV , when measured on Saccharomyces cerevisiae, yielded protein stability index of 0.689

The sequence QAGKPAIHHAAL , when measured on Saccharomyces cerevisiae, yielded protein stability index of 0.682

The sequence DLPATSAETAPK , when measured on Saccharomyces cerevisiae, yielded protein stability index of 0.699

The sequence VSPLSHPPSPAP , when measured on Saccharomyces cerevisiae, yielded protein stability index of 0.702

The sequence RDPDTWKLFSLT , when measured on Saccharomyces cerevisiae, yielded protein stability index of 0.687

The sequence LGNANKRPREIK , when measured on Saccharomyces cerevisiae, yielded protein stability index of 0.718

The sequence ICSLLIRREELV , when measured on Saccharomyces cerevisiae, yielded protein stability index of 0.681

----------
List of protein stability index values.
- Tested on: Saccharomyces cerevisiae
- assay info: protein stability index of tFT-peptide fusion (C-terminal peptide) (PSI (0-1 scale)); higher = more stable (slower turnover)
- measurement conditions: genetic background: das1 deletion; temperature: 30 C
I'd appreciate a reply containing only the number, no unit.

# chain, recorded metric, observed measurement
records = [
    ("VAVASASSSASS [VPH1 C-terminal 12 aa]", "protein stability index", 0.683),
    ("ETDSESEVESIM [SYG1 C-terminal 12 aa]", "protein stability index", 0.697),
]

Shift focus to the following entry.
// sample LELCKLASNNLE [RRI2 C-terminal 12 aa] , its protein stability index was 0.69

----------
- System: Saccharomyces cerevisiae
- assay info: protein stability index of tFT-peptide fusion (C-terminal peptide) (PSI (0-1 scale)); higher = more stable (slower turnover)
- measurement conditions: genetic background: cdc53-1; temperature: 37 C
If the reported protein stability index equals or exceeds 0.6, assign Fulfilled. If not, assign Not fulfilled.

Would you please look over these solved cases?
# chain, label
rows = [
    ("LLFPRVLVLCFS", "Not fulfilled"),
    ("LLLLGVSLFLVR", "Not fulfilled"),
    ("AQLVYVITAVRT", "Not fulfilled"),
    ("WWVVVRGGWCLC", "Not fulfilled"),
]

Task item: State whether the measured protein stability index reaches 0.6, counting equality as reaching it, for GWFCLFFVVSTG
Reply: Not fulfilled

Task item: State whether the measured protein stability index reaches 0.6, counting equality as reaching it, for AFAFLLHRFLLV
Reply: Not fulfilled

Task item: State whether the measured protein stability index reaches 0.6, counting equality as reaching it, for SLLLLSLCRFVG
Reply: Fulfilled

Task item: State whether the measured protein stability index reaches 0.6, counting equality as reaching it, for CNIYVLIIIKKY
Reply: Not fulfilled

Task item: State whether the measured protein stability index reaches 0.6, counting equality as reaching it, for RSPIRYPPVVLS
Reply: Fulfilled

Task item: State whether the measured protein stability index reaches 0.6, counting equality as reaching it, for AIPRWLALLVAH
Reply: Not fulfilled

----------
- System: Saccharomyces cerevisiae
- assay info: protein stability index of tFT-peptide fusion (C-terminal peptide) (PSI (0-1 scale)); higher = more stable (slower turnover)
- measurement conditions: genetic background: das1 deletion; temperature: 30 C
If the reported protein stability index equals or exceeds 0.7, assign met. If not, assign not met.

Would you please look over these solved cases?
# chain, study target, label
rows = [
    ("RDLPSVLAKYGF [RRG1 C-terminal 12 aa]", "Saccharomyces cerevisiae", "met"),
    ("RAGRSTLKETPQ [CCT6 C-terminal 12 aa]", "Saccharomyces cerevisiae", "not met"),
]

Pending sequence:
Task item: State whether the measured protein stability index reaches 0.7, counting equality as reaching it, for IFNATASNPFGF [SLA1 C-terminal 12 aa]
Reply: met

----------
- System: Saccharomyces cerevisiae
- assay info: protein stability index of tFT-peptide fusion in wild type (PSI (0-1 scale)); higher = more stable (slower turnover)
- measurement conditions: genetic background: wild type
If the reported protein stability index equals or exceeds 0.2, assign label 1. If not, assign label 0.

# chain, label
rows = [
    ("LVVYLSCLACIN", "label 0"),
    ("LVVSLSCVACIN", "label 0"),
    ("FSMRWTFRYWVS", "label 0"),
]

Task item: State whether the measured protein stability index reaches 0.2, counting equality as reaching it, for LVVYLSCVCCIN
Reply: label 1

Task item: State whether the measured protein stability index reaches 0.2, counting equality as reaching it, for AITLPMKPLLLR
Reply: label 1

----------
- Test system: Saccharomyces cerevisiae
- assay info: protein stability index of tFT-peptide fusion (C-terminal peptide) (PSI (0-1 scale)); higher = more stable (slower turnover)
- measurement conditions: genetic background: das1 deletion; temperature: 30 C
If the reported protein stability index equals or exceeds 0.7, assign Fulfilled. If not, assign Not fulfilled.

Would you please look over these solved cases?
# chain, study target, label
measured = [
    ("PVTAIALLEARR [YER190C-A C-terminal 12 aa]", "Saccharomyces cerevisiae", "Not fulfilled"),
    ("SFYDNSLQTWIV [RRT2 C-terminal 12 aa]", "Saccharomyces cerevisiae", "Fulfilled"),
    ("RLVVEPLQGRKH [ISD11 C-terminal 12 aa]", "Saccharomyces cerevisiae", "Fulfilled"),
    ("VTGKEKFEKLRD [SPG3 C-terminal 12 aa]", "Saccharomyces cerevisiae", "Fulfilled"),
    ("EIKKIYQNEKKI [DPC7 C-terminal 12 aa]", "Saccharomyces cerevisiae", "Fulfilled"),
    ("PSIARILEFMQS [SAY1 C-terminal 12 aa]", "Saccharomyces cerevisiae", "Fulfilled"),
]

Task item: State whether the measured protein stability index reaches 0.7, counting equality as reaching it, for VQRVILITHLNV [YOL083C-A C-terminal 12 aa]
Reply: Not fulfilled

Task item: State whether the measured protein stability index reaches 0.7, counting equality as reaching it, for SLDITEDWEVIF [ROT2 C-terminal 12 aa]
Reply: Fulfilled

Task item: State whether the measured protein stability index reaches 0.7, counting equality as reaching it, for LEKEKLFNNGNH [PRI2 C-terminal 12 aa]
Reply: Fulfilled

Task item: State whether the measured protein stability index reaches 0.7, counting equality as reaching it, for KGLVIVKDAIIL [PFF1 C-terminal 12 aa]
Reply: Not fulfilled

Task item: State whether the measured protein stability index reaches 0.7, counting equality as reaching it, for CVDCGTVVNNFR [LAF1 C-terminal 12 aa]
Reply: Fulfilled

Task item: State whether the measured protein stability index reaches 0.7, counting equality as reaching it, for TIITKYEMLVRT [YOL134C C-terminal 12 aa]
Reply: Not fulfilled
